# Tested on: 855422-203-R-J1-PDC complex spheroid viability;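 also: spheroids exposed to compounds for seven days before readout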
# assay.procedure: Anticancer human tumor 855422-203-R-J1-PDC patient-derived bladder carcinoma cell line growth inhibition [POLQ]
# measurement.setup: second compound 0.0316 µM; first compound 0.1 µM; hits give low values
endpoint: viability, T/C (%)
Response body: numeric value in %, unit text excluded.

So what viability, T/C did COc1cc(C2c3cc4c(cc3C(OC3OC5COC(C)OC5C(O)C3O)C3COC(=O)C23)OCO4)cc(OC)c1O (stereo not drawn) + Cc1cccc(N(C)C(=O)C2C(O)CCN2c2nc(C)cc(C(F)(F)F)c2C#N)c1 get with 855422-203-R-J1-PDC complex spheroid viability?
102

Would you mind doing CNCc1ccc(-c2[nH]c3cc(F)cc4c3c2CCNC4=O)cc1 + Nc1ccc(C#CCN(C(=O)Cc2ncc(C(F)(F)F)cc2C(F)(F)F)c2ccc(F)cc2)nn1 as well?
131

Would you mind doing Nc1ccn(C2OC(CO)C(O)C2(F)F)c(=O)n1 (stereo not drawn) + Cc1cccc(N(C)C(=O)C2C(O)CCN2c2nc(C)cc(C(F)(F)F)c2C#N)c1 as well?
41

Would you mind doing O=C(c1cc(Cc2n[nH]c(=O)c3ccccc23)ccc1F)N1CCN(C(=O)C2CC2)CC1 + Nc1ccc(C#CCN(C(=O)Cc2ncc(C(F)(F)F)cc2C(F)(F)F)c2ccc(F)cc2)nn1 as well?
126

Would you mind doing COc1cccc2c1C(=O)c1c(O)c3c(c(O)c1C2=O)CC(O)(C(=O)CO)CC3OC1CC(N)C(O)C(C)O1 (stereo not drawn) + Nc1ccc(C#CCN(C(=O)Cc2ncc(C(F)(F)F)cc2C(F)(F)F)c2ccc(F)cc2)nn1 as well?
12.8

Would you mind doing C=CC(=O)N1CCN(c2nc(=O)n(-c3c(C)ccnc3C(C)C)c3nc(-c4c(O)cccc4F)c(F)cc23)C(C)C1 (stereo not drawn) + COC1C(OC(N)=O)C(O)C(Oc2ccc3c(O)c(NC(=O)c4ccc(O)c(CC=C(C)C)c4)c(=O)oc3c2C)OC1(C)C as well?
106

Would you mind doing CCCS(=O)(=O)Nc1ccc(F)c(C(=O)c2c[nH]c3ncc(-c4ccc(Cl)cc4)cc23)c1F + COC1C(OC(N)=O)C(O)C(Oc2ccc3c(O)c(NC(=O)c4ccc(O)c(CC=C(C)C)c4)c(=O)oc3c2C)OC1(C)C as well?
94.6

Would you mind doing O=c1[nH]cc(F)c(=O)[nH]1 + Cc1cccc(N(C)C(=O)C2C(O)CCN2c2nc(C)cc(C(F)(F)F)c2C#N)c1 as well?
96.3
